For each entry below, report its relative viability value.
Tested on: EKVX
Test: relative viability (nuclei count vs DMSO), 5 days (fraction); higher = more cells survive
Conditions: first compound 0.03162 µM
Numbers only.

State recorded relative viability for all listed compounds.
1. Cc1cn(-c2cc(NC(=O)c3ccc(C)c(Nc4nccc(-c5cccnc5)n4)c3)cc(C(F)(F)F)c2)cn1 [Nilotinib] + Nc1nc2[nH]cc(CCc3ccc(C(=O)N[C@@H](CCC(=O)O)C(=O)O)cc3)c2c(=O)[nH]1 [Pemetrexed] (partner 0.2 µM)
2. Cc1cn(-c2cc(NC(=O)c3ccc(C)c(Nc4nccc(-c5cccnc5)n4)c3)cc(C(F)(F)F)c2)cn1 [Nilotinib] + NC(=O)Nc1cc(-c2cccc(F)c2)sc1C(=O)N[C@H]1CCCNC1 [AZD7762] (partner 0.2 µM)
3. Cc1cn(-c2cc(NC(=O)c3ccc(C)c(Nc4nccc(-c5cccnc5)n4)c3)cc(C(F)(F)F)c2)cn1 [Nilotinib] + COc1cc2c(Oc3ccc(NC(=O)C4(C(=O)Nc5ccc(F)cc5)CC4)cc3F)ccnc2cc1OCCCN1CCOCC1 [Foretinib] (partner 0.25 µM)
4. Cc1cn(-c2cc(NC(=O)c3ccc(C)c(Nc4nccc(-c5cccnc5)n4)c3)cc(C(F)(F)F)c2)cn1 [Nilotinib] + CCNC(=O)c1noc(-c2cc(C(C)C)c(O)cc2O)c1-c1ccc(CN2CCOCC2)cc1 [Luminespib] (partner 0.01 µM)
5. Cc1cn(-c2cc(NC(=O)c3ccc(C)c(Nc4nccc(-c5cccnc5)n4)c3)cc(C(F)(F)F)c2)cn1 [Nilotinib] + CS(=O)(=O)CCNCc1ccc(-c2ccc3ncnc(Nc4ccc(OCc5cccc(F)c5)c(Cl)c4)c3c2)o1 [Lapatinib] (partner 2 µM)

*A*
[0.353, 0.688, 0.512, 0.88, 0.187]
